The measured values listed here are drawn from patent US20260242478A1.

Would you kindly list pIC50 for each of these sequences?
Molecular target: anti-CD28 Fab (SEQ ID NOs: 696, 697) binding to CD28 antigen
Sequence (as listed by the source): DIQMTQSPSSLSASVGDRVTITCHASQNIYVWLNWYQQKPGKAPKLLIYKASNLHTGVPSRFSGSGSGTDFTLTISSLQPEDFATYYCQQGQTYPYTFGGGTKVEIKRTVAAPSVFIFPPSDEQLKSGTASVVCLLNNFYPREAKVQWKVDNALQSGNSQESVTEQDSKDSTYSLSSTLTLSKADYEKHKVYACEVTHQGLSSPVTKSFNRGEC
Sequence (as listed by the source): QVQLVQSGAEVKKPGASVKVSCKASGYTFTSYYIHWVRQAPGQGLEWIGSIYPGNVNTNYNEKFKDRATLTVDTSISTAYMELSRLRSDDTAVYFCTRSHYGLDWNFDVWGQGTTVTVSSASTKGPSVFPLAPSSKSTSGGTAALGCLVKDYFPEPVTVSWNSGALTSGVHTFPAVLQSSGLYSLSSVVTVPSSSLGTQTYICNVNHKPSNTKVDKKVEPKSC
Sequence (P10747 19-220 partner): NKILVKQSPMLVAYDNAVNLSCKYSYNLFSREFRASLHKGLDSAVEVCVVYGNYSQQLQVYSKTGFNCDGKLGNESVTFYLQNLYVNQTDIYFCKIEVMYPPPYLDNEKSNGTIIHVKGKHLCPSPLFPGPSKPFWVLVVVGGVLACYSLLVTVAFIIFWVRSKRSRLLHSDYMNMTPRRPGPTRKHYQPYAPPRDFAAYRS
Experiment: Inhibition of anti-CD28 Fab binding to CD28 by peptides, competition ELISA (incl. alanine scanning)
Conditions: Table 25; anti-CD28 Fab fixed at 1 nM, 0-100 μM peptides
pIC50: −log10 of the molar value.

| ITEM_SEQUENCE | SYSTEM_NAME | pIC50 |
| --- | --- | --- |
| LCAAGFTYPWPLCL [Peptide-155] | anti-CD28 Fab (SEQ ID NOs: 696, 697) binding to CD28 antigen | < 4.00 |

Proceeding to the next sequence to report its pIC50.
Using the record for LCKPGVPYKWPTCL [Peptide-156] , report its pIC50.
< 4.00
